Give measured ELISA endpoint for each item. Keep answers brief.
system-tested: Heartland virus (HRTV) nucleocapsid (N) protein (Heartland virus (HRTV))
# output: bare number, implied unit ng/mL

What the record says about MAb 2BB8 (antibody, V domains shown) VH: QAYLQQSGAELVRSGASLKMSCKASGYTFTSYNLHWVKQTPGQGLEWIGYIFPGNGGTAYNEKFKGKATLTADTSSSTAYMQISSLTSEDSAVYFCARGGPYYALDYWGQGTSVTVSS VL: DIQMTQSPASLSASVGETVTITCRTSGNIHTYLAWYQHKQGKSPQLLVYYAKTLADGVPSRFSGSGSGTQYSLKINSLQPEDFGSYYCQHFWSNPRTFGGGTKLEIK : ELISA endpoint is 0.61

What the record says about MAb 2AG8 (antibody, V domains shown) VH: VKLEESGAELVRSGASLKMSCKASGYTFTSYNLHWVKQTPGQGLEWIGYIFPGNGGTAYNEKFKGKATLTADTSSSTAYMQISSLTSEDSAVYFCARGGPYYALDYWGQGTSVTVSS VL: DIVMTQSPASLSASVGETVTITCRTSGNIHTYLAWYQHKQGKSPQLLVYYAKTLADGVPSRFSGSGSGTQYSLKINSLQPEDFGSYYCQHFWSNPRTFGGGTKLEIKR : ELISA endpoint is 0.381

What the record says about MAb 2BB5 (antibody, V domains shown) VH: EVQLEESGGGLVQPGGSMKLSCVASGFTFSNYWMNWVRQSPEKGLEWVAEVRLNSNNYATHYAESVKGRFTISRDDSKSSVYLQMSNLRSEDTGIYYCSTDYYGYAMDYWGQGTSVTVSS VL: DIVMTQTPSIMSASPGEKVTITCSASSNVNYMHWFQQKPGTSPKLWIYSTSNLASGVPARFSGSGSGTSYSLTISRMEAEDAATYYCQQRSNYPPTFGAGTKLELK : ELISA endpoint is 0.156
